# MEASUREMENT_TARGET: T1, LukF
# T1 chain: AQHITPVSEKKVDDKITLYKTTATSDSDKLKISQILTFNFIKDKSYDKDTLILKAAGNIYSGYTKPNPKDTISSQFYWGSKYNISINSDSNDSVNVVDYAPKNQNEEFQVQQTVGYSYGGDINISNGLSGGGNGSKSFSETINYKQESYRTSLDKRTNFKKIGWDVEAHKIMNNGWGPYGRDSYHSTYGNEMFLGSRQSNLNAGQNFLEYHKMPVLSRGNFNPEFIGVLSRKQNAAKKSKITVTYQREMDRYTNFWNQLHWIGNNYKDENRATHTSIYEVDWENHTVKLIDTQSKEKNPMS
# ASSAY_NAME: MSD solution equilibrium; Fab
Collected Kd values appear next to each entry.
Your answer should be a plain number; it is taken to be in nM.

BINDER: AB-28-7 (antibody, V domains shown) VH: QVQLQESGPGLVKPSETLSLTCAVSGYSISSGMGWDWIRQPPGKGREWIGSIDQRGSTYYNPSLEGRATISVDTSKNQFSLKLSSVTAADTAVYYCARDAGHGVDMDVWGKGTTVTVSS VL: DIQMTQSPSSVSASVGDRVTITCRASQGISRWLAWYQQKPGKAPKLLIYAASSLQSGVPSRFSGSGSGTDFTLTISSLQPEDFATYYCQQGYVFPLTFGGGTKVEIK
Kd (nM): 0.052

Could you tell me which Kd is on file for AB-28-6 (antibody, V domains shown) VH: QVQLQESGPGLVRPSETLSLTCAVSGYSISSGMGWGWIRQPPGKGLEWIGSIDQRGSTYYNPSLKSRVTISVDTSKNQFSLKLSSVTAADTAVYYCARDAGHAVDMDVWGKGTTVTVSS VL: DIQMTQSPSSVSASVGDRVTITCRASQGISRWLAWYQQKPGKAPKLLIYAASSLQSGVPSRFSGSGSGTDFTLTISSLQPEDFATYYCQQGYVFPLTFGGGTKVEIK ? 0.016
